The origin of these recorded values is the supplement of paper PMC10307832.

Tested on: LK-2
Test: relative viability (nuclei count vs DMSO), 5 days (fraction); higher = more cells survive
Conditions: first compound 0.005 µM
For each record, write down the corresponding relative viability.
One number for each entry.

Some solved entries appear below for comparison.
CC1(C)CCC(c2ccc(Cl)cc2)=C(CN2CCN(c3ccc(C(=O)NS(=O)(=O)c4ccc(N[C@H](CCN5CCOCC5)CSc5ccccc5)c(S(=O)(=O)C(F)(F)F)c4)cc3)CC2)C1 [Navitoclax] + C[C@]1(O)C[C@@H](c2nc(-c3ccc4ccc(-c5ccccc5)nc4c3)c3c(N)nccn32)C1 [Linsitinib] (partner 1 µM) : 0.792
CC1(C)CCC(c2ccc(Cl)cc2)=C(CN2CCN(c3ccc(C(=O)NS(=O)(=O)c4ccc(N[C@H](CCN5CCOCC5)CSc5ccccc5)c(S(=O)(=O)C(F)(F)F)c4)cc3)CC2)C1 [Navitoclax] + Nc1ncn([C@H]2C[C@H](O)[C@@H](CO)O2)c(=O)n1 [Decitabine] (partner 2 µM) : 0.295
CC1(C)CCC(c2ccc(Cl)cc2)=C(CN2CCN(c3ccc(C(=O)NS(=O)(=O)c4ccc(N[C@H](CCN5CCOCC5)CSc5ccccc5)c(S(=O)(=O)C(F)(F)F)c4)cc3)CC2)C1 [Navitoclax] + CS(=O)(=O)N1CCN(Cc2cc3nc(-c4cccc5[nH]ncc45)nc(N4CCOCC4)c3s2)CC1 [Pictilisib] (partner 1 µM) : 0.612

I'm hoping you can list relative viability for every molecule here, please.
1. CC1(C)CCC(c2ccc(Cl)cc2)=C(CN2CCN(c3ccc(C(=O)NS(=O)(=O)c4ccc(N[C@H](CCN5CCOCC5)CSc5ccccc5)c(S(=O)(=O)C(F)(F)F)c4)cc3)CC2)C1 [Navitoclax] + Nc1nc2[nH]cc(CCc3ccc(C(=O)N[C@@H](CCC(=O)O)C(=O)O)cc3)c2c(=O)[nH]1 [Pemetrexed] (partner 0.2 µM)
2. CC1(C)CCC(c2ccc(Cl)cc2)=C(CN2CCN(c3ccc(C(=O)NS(=O)(=O)c4ccc(N[C@H](CCN5CCOCC5)CSc5ccccc5)c(S(=O)(=O)C(F)(F)F)c4)cc3)CC2)C1 [Navitoclax] + C[C@@H](Oc1cc(-c2cnn(C3CCNCC3)c2)cnc1N)c1c(Cl)ccc(F)c1Cl [Crizotinib] (partner 1 µM)
3. CC1(C)CCC(c2ccc(Cl)cc2)=C(CN2CCN(c3ccc(C(=O)NS(=O)(=O)c4ccc(N[C@H](CCN5CCOCC5)CSc5ccccc5)c(S(=O)(=O)C(F)(F)F)c4)cc3)CC2)C1 [Navitoclax] + CCNC(=O)c1noc(-c2cc(C(C)C)c(O)cc2O)c1-c1ccc(CN2CCOCC2)cc1 [Luminespib] (partner 0.01 µM)
4. CC1(C)CCC(c2ccc(Cl)cc2)=C(CN2CCN(c3ccc(C(=O)NS(=O)(=O)c4ccc(N[C@H](CCN5CCOCC5)CSc5ccccc5)c(S(=O)(=O)C(F)(F)F)c4)cc3)CC2)C1 [Navitoclax] + O=C(CCCCCCC(=O)Nc1ccccc1)NO [Vorinostat] (partner 1 µM)

Ans.
[0.35, 0.226, 0.204, 0.293]
